# tested system: hPPARalpha (Homo sapiens, UniProt Q07869)
# Construct: expressed in transfected cells; host or cells: COS-7 (monkey kidney fibroblasts)
# Sequence (Q07869 239-466 limits assumed): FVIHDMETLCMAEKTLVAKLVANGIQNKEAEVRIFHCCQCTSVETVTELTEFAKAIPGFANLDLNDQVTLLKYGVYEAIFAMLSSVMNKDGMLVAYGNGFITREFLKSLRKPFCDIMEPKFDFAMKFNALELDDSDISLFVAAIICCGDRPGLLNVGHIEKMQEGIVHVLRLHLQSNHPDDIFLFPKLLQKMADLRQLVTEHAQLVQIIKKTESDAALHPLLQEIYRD
# assay text: PPAR activation: Gal4-hPPARα chimera luciferase transactivation in COS-7 cells, Method 1
# Assay type: cell-based
# assay context: COS-7, 24 h
metric: EC50 (nM)

Observe how each entry below is paired with its result.
> print(dat)
                                   compound  metric  reported
1  CC(C)(Oc1ccc(CCC(OCc2ccccc2)c2cc(-c3ccc(C(F)(F)F)cc3)cs2)c(Cl)c1Cl)C(=O)O (stereo not shown) [Compound 61]    EC50       591
2  O=C(CCc1ccc(OC(C(=O)O)c2ccccc2)c(Cl)c1Cl)c1ccc(-c2ccc(C(F)(F)F)cc2)s1 (stereo not shown) [Compound 17]    EC50       228

a: O=C(O)COc1ccc(CCC(=O)c2ccc(-c3ccc(C(F)(F)F)cc3)s2)c(Cl)c1Cl [Compound 15]
b: CC(C)(Oc1ccc(CCC(=O)c2ccc(-c3ccc(C(F)(F)F)cc3)s2)c(Cl)c1)C(=O)O [Compound 21]
c: CCC(Oc1ccc(CCC(=O)c2ccc(-c3ccc(C(F)(F)F)cc3)s2)cc1F)C(=O)O (stereo not shown) [Compound 29]
d: CC(C)(Oc1ccc(CCC(=O)c2cc(-c3ccc(C(F)(F)F)cc3)cs2)c(Cl)c1Cl)C(=O)O [Compound 11]
e: CC(C)(Oc1ccc(CCC(=O)c2ccc(-c3ccc(C(F)(F)F)cc3)s2)c(F)c1F)C(=O)O [Compound 46]
Given 5 compounds, produce a descending ranking by EC50. Lab note: record answer as labels in requested order. d, a, b, e, c

* * *

# tested system: hPPARgamma (Homo sapiens)
# Construct: expressed in transfected cells; host or cells: COS-7 (monkey kidney fibroblasts)
# Sequence (P37231 238-503 limits assumed): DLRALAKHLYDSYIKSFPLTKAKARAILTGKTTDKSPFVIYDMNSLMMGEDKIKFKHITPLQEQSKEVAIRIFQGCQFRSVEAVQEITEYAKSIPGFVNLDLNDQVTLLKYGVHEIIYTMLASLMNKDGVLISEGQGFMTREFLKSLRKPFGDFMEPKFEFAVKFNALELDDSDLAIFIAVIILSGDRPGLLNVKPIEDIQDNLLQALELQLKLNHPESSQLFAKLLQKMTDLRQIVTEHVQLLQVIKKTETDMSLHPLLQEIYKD
# assay text: PPAR activation: Gal4-hPPARγ chimera luciferase transactivation in COS-7 cells, Method 2
# Type: cell-based
# assay context: COS-7, 24 h; maximum percentage response relative to the reference rosiglitazone; Method 2; read-out: hPPARgamma % max
metric: Emax (%)

> print(dat)
                                   compound  reported
1  CON=C(CCc1ccc(OC(C)(C)C(=O)O)c(Cl)c1Cl)c1ccc(-c2ccc(C(F)(F)F)cc2)s1 (mixture of isomers)        32

1: O=C(O)COc1ccc(CCC(=O)c2ccc(-c3ccc(C(F)(F)F)cc3)s2)cc1F
2: Cc1cc(CCC(=O)c2ccc(-c3ccc(C(F)(F)F)cc3)s2)ccc1OC(C)(C)C(=O)O
3: CC(C)OC(CCc1ccc(OC(C)(C)C(=O)O)c(Cl)c1Cl)c1ccc(-c2ccc(C(F)(F)F)cc2)s1 (stereo not shown)
Given 3 compounds, produce a descending ranking by Emax. Lab note: record answer as labels in requested order. 2, 1, 3
(2: 57%, 1: 27%, 3: 2%)

These entries and their values trace back to patent US8088819B2.
